As shown below, each of these sequences has a reported apparent KD of MS2 coat protein value.
- System: MS2 coat protein
- protocol-text: apparent KD of MS2 coat protein; designed switch direction (-1 OFF switch, 1 ON switch): -1; higher = weaker reporter binding
- setup-conditions: input ligand: FMN 200 uM
Write down the numeric answer in nM and omit the unit.

Examples from the recorded data:
CCGCUCCGUGUAGGAUAUUGGCCUGCUCUGGGCCGAGAAGGACAUGAGGAUCACCCAUGUAUGUUAUUAUCACGCGUGGCGCAU [Design 79] (Eterna round: R96, puzzle: Exclusion NG 1); 31.6
GGAUCACAUGUCAGGAUAUGCUGGUCCUUGGAUCAGCAGAAGGGACAUGAGGAUCACCCAUGUCAUGAAGAUCC [Eli bmx4 4.80] (Eterna round: R97, puzzle: Brourd's mod of Exclusion 4); 1020
GACGACUCGUCAGGAUAUGUAAACGAGCAAUUGACAGAAGGGACACUGUCGAGGGUACACAUGAGGAUCACCCAUGUACUCGUC [Eternabot solution 40] (Eterna round: R96, puzzle: Exclusion NG 1); 12.4
AAAGAUGUAGGAUAUGUCCAUCCAGACAUGAGGAUCACCCAUGUGAGGGCCGGGUGUUGGGCAGAAGGACACCGGU [Eternabot (Original) Solution 19] (Eterna round: R97, puzzle: Exclusion 5); 27.2
GGCAUGUGAGGAUAUUAACGGCCUAGACCUGGAACGCCACUUAAGAAGGUACAUGAGGAUCACCCAUGUUGGUG [Eternabot (L2) Solution 19] (Eterna round: R97, puzzle: Exclusion 4); 711
AUAAGUGAUAAGGAUAUUACUAGCUUCGGCUAGUGAGAAGGUAUCACAUGAGGAUCACCCAUGUGUUCCAAUAA [Ex6/7-B1] (Eterna round: R97, puzzle: Exclusion 6); 270
UCGAUGUGAGGAUAUAUAUGCAGUAGUCCUUGUGUUUUAUAACUUGAGGAUCACCCAAGUAGAAGGCGCGACGU [JR_Ex2_Sub059] (Eterna round: R97, puzzle: Exclusion 2); 37
UGCGGGCUUUUGAGACCUCACAUGAGGAUCACCCAUGUGCUUGUCUUGUAAGUGGGUAGGUCGUUGGCUGACUCACA [Sensor-V1 #100] (Eterna round: R97, puzzle: Sensor, turn-off variant 1); 18.8
ACCUUACUGGUCAGGAUAUACAGUCUUUGGUGUGUGUAGAAGGGACAUGAGGAUCACCCAUGUAGGUUGCAGUA [alecazam60] (Eterna round: R97, puzzle: Brourd's mod of Exclusion 4); 77.6
AAGAGGCGGACAGGAUAUGGGAAAUUGUAAAGACCAGAAGGGUCGGCGAAAAUACAUGAGGAUCACCCAUGUGAAUCAUGACCA [AK ExNG1-7] (Eterna round: R96, puzzle: Exclusion NG 1); 89.1

get_value(item= CCCUCACUUGAGGAUCACCCAAGUCAGGAUAUCUCCCACCCGGCAACAACCGGGUGCCAGAGAAGGGACUCAAA [Xemaques] (Eterna round: R97, puzzle: Exclusion 1) , readout=apparent KD of MS2 coat protein) returns 17.9

// sample AUAAAGCAAGCAUGAUCCCACAUGAGGAUCACCCAUGUGUUCGUCUUAUAGGCUGCUGAGGCUUUUGCCUCGGUGGC [LRO Sensor-off var1-06 loose mod of D91 from Mat747] (Eterna round: R97, puzzle: Sensor, turn-off variant 1) , its apparent KD of MS2 coat protein was 69

Reference for the values: the supplement of paper PMC9170038
